Hey, just so you know, these numbers are from ChEMBL document CHEMBL1961873.

TEST TARGET: Casein kinase I isoform alpha (Homo sapiens) (UniProt P48729);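 note: values are the mean percent inhibition of CK1a, averaged over measurements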
Sequence (P48729 2-337 limits assumed): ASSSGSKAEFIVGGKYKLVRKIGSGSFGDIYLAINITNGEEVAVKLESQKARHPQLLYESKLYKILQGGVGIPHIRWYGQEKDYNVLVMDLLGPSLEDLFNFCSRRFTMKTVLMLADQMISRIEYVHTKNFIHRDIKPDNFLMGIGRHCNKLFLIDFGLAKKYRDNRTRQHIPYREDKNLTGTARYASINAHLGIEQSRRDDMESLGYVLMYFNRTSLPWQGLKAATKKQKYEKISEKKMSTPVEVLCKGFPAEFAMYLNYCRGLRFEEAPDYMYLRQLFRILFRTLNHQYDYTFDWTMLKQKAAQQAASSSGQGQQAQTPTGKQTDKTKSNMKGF
MEASUREMENT CONTEXT: at 0.1 µM
MEASURED PROPERTY: inhibition (%)
One number for each entry, in %.

Examples with answers:
[
  {
    "MOLECULE": "c1ccc(Nc2ncc(-c3ccccc3)o2)cc1",
    "MEASURED PROPERTY": "inhibition",
    "RESULT UNITS": "%",
    "VALUE OBSERVED": 4.02
  },
  {
    "MOLECULE": "OCc1ccc(-c2nc(-c3ccccn3)c(-c3ccc4c(c3)OCO4)[nH]2)cc1",
    "MEASURED PROPERTY": "inhibition",
    "RESULT UNITS": "%",
    "VALUE OBSERVED": 9.48
  },
  {
    "MOLECULE": "N#Cc1c(NC(=O)c2ccccc2F)sc2c1CCCC2",
    "MEASURED PROPERTY": "inhibition",
    "RESULT UNITS": "%",
    "VALUE OBSERVED": -1.71
  },
  {
    "MOLECULE": "Cc1cc(Cl)cc2c1NC(=O)C2=NNc1ccc(S(N)(=O)=O)cc1",
    "MEASURED PROPERTY": "inhibition",
    "RESULT UNITS": "%",
    "VALUE OBSERVED": 1.05
  },
  {
    "MOLECULE": "NS(=O)(=O)c1ccc(Nc2cc(-c3cccc(O)c3)n[nH]2)cc1",
    "MEASURED PROPERTY": "inhibition",
    "RESULT UNITS": "%",
    "VALUE OBSERVED": 3.67
  }
]

Hello, I would appreciate it if you could give inhibition for each entry below.
1. COC(=O)Nc1nc2cc(Oc3ccc(NC(=O)Nc4cccc(Br)c4)cc3)ccc2[nH]1
2. CCOc1nccc2c1nc(-c1nonc1N)n2CC

a:
1: 4.89; 2: 3.85

Each of the following entries comes with a recorded value; kindly state inhibition for each.
1. CCCN1CCCC(c2ccc(Nc3nc(Nc4cc(F)ccc4C(N)=O)c4cc[nH]c4n3)c(OC)c2)C1 (stereo unspecified)
2. Cc1ccc(NC(=O)CC2CC2)cc1-c1ccc(C(=O)NCC2CC2)cc1

a:
1: 44.3; 2: 7.12

Hi team, please reply with inhibition for each item in this list.
1. NS(=O)(=O)c1ccc(NC=C2C(=O)Nc3ccc4ncsc4c32)cc1
2. Cc1ccc2c(-c3ccnc(Nc4cccc(C(F)(F)F)c4)n3)c(-c3ccccc3)nn2n1

a:
1. 4.2
2. 15.3

---

TEST TARGET: Serine/threonine-protein kinase Nek7 (Homo sapiens) (UniProt Q8TDX7);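 note: figures are averaged percent inhibition of NEK7 kinase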
Sequence (Q8TDX7 whole entry, looked up): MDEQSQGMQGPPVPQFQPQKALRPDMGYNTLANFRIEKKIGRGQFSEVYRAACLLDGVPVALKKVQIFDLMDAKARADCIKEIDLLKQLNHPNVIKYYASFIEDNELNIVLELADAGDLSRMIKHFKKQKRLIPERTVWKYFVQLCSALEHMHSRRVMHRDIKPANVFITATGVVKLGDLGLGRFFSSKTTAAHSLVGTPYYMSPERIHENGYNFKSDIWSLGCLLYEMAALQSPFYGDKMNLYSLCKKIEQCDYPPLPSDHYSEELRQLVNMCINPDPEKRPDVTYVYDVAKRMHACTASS
MEASUREMENT CONTEXT: at 0.1 µM
I'd appreciate it if you could supply inhibition values for the items below.
Numbers only, in %.

[
  {
    "STRUCTURE AS SMILES": "CS(=O)(=O)Nc1cccc(-c2ccc3c(NC(=O)C4CC4)n[nH]c3c2)c1",
    "MEASURED PROPERTY": "inhibition",
    "RESULT UNITS": "%",
    "VALUE OBSERVED": 2.34
  },
  {
    "STRUCTURE AS SMILES": "COc1cc(Nc2nccc(-c3cnn4ncccc34)n2)cc(OC)c1",
    "MEASURED PROPERTY": "inhibition",
    "RESULT UNITS": "%",
    "VALUE OBSERVED": 2.07
  },
  {
    "STRUCTURE AS SMILES": "COc1cc2ncnc(Nc3ccc4c(cnn4Cc4ccccc4)c3)c2cc1OC",
    "MEASURED PROPERTY": "inhibition",
    "RESULT UNITS": "%",
    "VALUE OBSERVED": 0.26
  }
]

Could I get inhibition for every one of these entries?
1. Cc1ccc(O)cc1Nc1ccnc2ccc(S(C)(=O)=O)cc12
2. COC(=O)c1ccc2c(c1)C(=Cc1cc(Br)c(O)c(Br)c1)C(=O)N2
3. Cc1ccc2c(-c3ccnc(Nc4ccc5c(c4)OCCO5)n3)c(-c3ccc(C(F)(F)F)cc3)nn2n1
4. NS(=O)(=O)c1ccc(N/N=C2\C(=O)Nc3ccc(Cl)cc32)cc1
5. CN(C)CCCn1c(-c2nonc2N)nc2cnccc21

a:
5.32
4.31
-0.01
2.88
6.28

Kindly give each listed record's inhibition.
1. CC(C)c1ccc2c(c1)NC(=O)/C2=N/Nc1ccc(S(N)(=O)=O)cc1
2. CN(C)C(=O)O[C@H]1CN[C@H](C#Cc2cc3ncnc(Nc4ccc(OCc5cccc(F)c5)c(Cl)c4)c3s2)C1

a:
-0.24
3.6

---

So I've got a bunch of compounds here, and I need their inhibition values.
TEST TARGET: Tyrosine-protein kinase Tec (Homo sapiens) (UniProt P42680)
Sequence (whole entry): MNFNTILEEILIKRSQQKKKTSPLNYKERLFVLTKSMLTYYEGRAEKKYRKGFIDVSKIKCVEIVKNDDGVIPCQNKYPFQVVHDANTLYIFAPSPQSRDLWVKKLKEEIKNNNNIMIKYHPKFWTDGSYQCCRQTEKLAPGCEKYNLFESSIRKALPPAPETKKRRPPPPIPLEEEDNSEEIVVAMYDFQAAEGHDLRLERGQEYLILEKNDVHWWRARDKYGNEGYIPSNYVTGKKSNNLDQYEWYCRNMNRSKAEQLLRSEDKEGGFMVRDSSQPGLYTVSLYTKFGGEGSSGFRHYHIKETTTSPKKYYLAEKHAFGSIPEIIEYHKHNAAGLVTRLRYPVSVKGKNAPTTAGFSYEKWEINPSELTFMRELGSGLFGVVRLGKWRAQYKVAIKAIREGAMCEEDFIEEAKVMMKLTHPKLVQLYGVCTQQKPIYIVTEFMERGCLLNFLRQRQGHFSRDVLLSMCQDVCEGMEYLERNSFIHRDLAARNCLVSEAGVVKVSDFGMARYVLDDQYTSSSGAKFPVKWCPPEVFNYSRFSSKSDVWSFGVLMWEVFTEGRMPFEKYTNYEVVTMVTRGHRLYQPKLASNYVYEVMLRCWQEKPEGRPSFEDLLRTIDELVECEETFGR
MEASUREMENT CONTEXT: at 0.1 µM
Description: GSK_PKIS: TEC mean inhibition at 0.1 uM [Nanosyn]
Answers are plain numbers, in %.

Record inhibition per entry; entries follow.
1. Cc1cc(Cl)cc2c1NC(=O)C2=NNc1ccc(S(N)(=O)=O)cc1
2. c1ccc(Cc2nc3ccc(Nc4ncnc5ccccc45)cc3[nH]2)cc1
3. CN(c1ccc(NC(=O)Nc2ccc(OC(F)(F)F)cc2)cc1)c1ccnc(Nc2cccc(S(N)(=O)=O)c2)n1
4. CC(C)c1ccc2c(c1)NC(=O)/C2=N/Nc1ccc(S(N)(=O)=O)cc1

a:
1. 2.23
2. 4.4
3. 0.44
4. 1.22

// each listed compound needs a value for inhibition
1. N#Cc1cccc(Nc2nccc(-c3cnn4ncccc34)n2)c1
2. COc1cccc(-n2nc(C)c3c(N/N=C(\C)c4ccncc4)ncnc32)c1
3. CN1CCN(C(=O)c2ccc(NC(=O)Nc3ccc(N(C)c4ccnc(Nc5ccc(CS(C)(=O)=O)cc5)n4)cc3)cc2)CC1
4. [O-][S+]1CCN(Cc2ccc(-c3ccc4ncnc(Nc5ccc(OCc6ccccc6)c(Cl)c5)c4c3)o2)CC1
5. O=C1Nc2ccc(-c3cccnc3)cc2C1=Cc1cc(Br)c(O)c(Br)c1
6. CS(=O)(=O)CCNCc1nc(-c2ccc3ncnc(Nc4ccc(OCc5cccc(C(F)(F)F)c5)cc4)c3c2)cs1
7. COc1cc(/C=N/Nc2ncnc3c2cnn3C(C)C)ccc1O
8. Cc1ccc(C(=O)NC2CC2)cc1-c1ccc2[nH]ncc2c1

a:
1. 8.87
2. 1.82
3. 10.1
4. -0.94
5. 3.68
6. 4.74
7. 3.27
8. -3.67

---

TEST TARGET: MAP/microtubule affinity-regulating kinase 4 (Homo sapiens) (UniProt Q96L34);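 note: reported value is a mean MARK4 inhibition at 1 µM, taken from the GSK PKIS screening set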
Sequence (whole entry): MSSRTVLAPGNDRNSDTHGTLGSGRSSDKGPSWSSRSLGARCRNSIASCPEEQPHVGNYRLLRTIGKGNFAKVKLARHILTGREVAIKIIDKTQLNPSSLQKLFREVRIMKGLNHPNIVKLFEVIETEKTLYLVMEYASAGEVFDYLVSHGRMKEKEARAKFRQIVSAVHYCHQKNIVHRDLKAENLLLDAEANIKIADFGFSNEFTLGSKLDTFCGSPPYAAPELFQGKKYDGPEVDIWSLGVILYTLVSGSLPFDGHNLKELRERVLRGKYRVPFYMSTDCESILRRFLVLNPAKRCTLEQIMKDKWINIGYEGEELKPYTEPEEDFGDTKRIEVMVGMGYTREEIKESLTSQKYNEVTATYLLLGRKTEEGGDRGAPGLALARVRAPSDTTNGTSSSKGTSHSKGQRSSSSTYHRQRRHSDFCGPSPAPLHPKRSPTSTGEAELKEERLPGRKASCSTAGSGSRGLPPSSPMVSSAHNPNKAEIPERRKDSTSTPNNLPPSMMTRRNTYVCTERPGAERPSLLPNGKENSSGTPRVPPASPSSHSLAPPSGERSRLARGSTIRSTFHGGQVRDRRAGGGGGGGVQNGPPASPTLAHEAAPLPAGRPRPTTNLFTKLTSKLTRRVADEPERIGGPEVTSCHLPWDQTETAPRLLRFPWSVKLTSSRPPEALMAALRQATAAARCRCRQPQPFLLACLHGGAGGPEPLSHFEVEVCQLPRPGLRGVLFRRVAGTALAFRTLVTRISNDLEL
MEASUREMENT CONTEXT: at 1 µM
MEASURED PROPERTY: inhibition (%)
One number for each entry, in %.

Some compounds with recorded inhibition:
[
  {
    "STRUCTURE AS SMILES": "CN(C)CCCn1c(-c2nonc2N)nc2cnccc21",
    "MEASURED PROPERTY": "inhibition",
    "VALUE OBSERVED": 3.46
  },
  {
    "STRUCTURE AS SMILES": "COc1cc2ncn(-c3cc(OCc4ccccc4S(C)(=O)=O)c(C#N)s3)c2cc1OC",
    "MEASURED PROPERTY": "inhibition",
    "VALUE OBSERVED": 76.6
  },
  {
    "STRUCTURE AS SMILES": "NS(=O)(=O)c1ccc(NC=C2C(=O)Nc3ccc4ncsc4c32)cc1",
    "MEASURED PROPERTY": "inhibition",
    "VALUE OBSERVED": 58.7
  },
  {
    "STRUCTURE AS SMILES": "Cc1ccc2c(-c3ccnc(Nc4cccc(C(F)(F)F)c4)n3)c(-c3ccccc3)nn2n1",
    "MEASURED PROPERTY": "inhibition",
    "VALUE OBSERVED": 2.82
  }
]

The record that follows has no inhibition shown yet.
// Nc1nccc(-c2c(-c3ccc(F)cc3)nn3cc(C(F)(F)F)ccc23)n1 : inhibition value = -0.03
